Target: μ receptors (Cavia porcellus)
Sequence (P97266 whole entry, looked up): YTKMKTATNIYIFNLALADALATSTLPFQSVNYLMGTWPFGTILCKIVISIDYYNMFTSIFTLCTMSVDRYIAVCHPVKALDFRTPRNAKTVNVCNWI
Test: Guinea Pig Ileum (GPI) assay, longitudinal muscle preparation
Square brackets hold non-standard residues; d marks the D form. Peptide text beside a SMILES is read from it.
Readout: IC50 (nM)
Express the result in nM but write the number alone.

1) C[C@@H](NC(=O)[C@@H](N)Cc1ccc(O)cc1)C(=O)N[C@H](Cc1ccccc1)C(=O)N[C@@H](Cc1ccccc1)C(N)=O [BCH1775, H-Tyr-D-Ala-D-Phe-Phe-NH2] (H-Y[dA][dF]F-NH2) ... 925

Pending molecule:
// output IC50; input C[C@@H](NC(=O)[C@@H](N)Cc1ccc(O)cc1)C(=O)N[C@@H](Cc1ccccc1)C(=O)N[C@@H](Cc1ccccc1)C(N)=O [BCH1774, H-Tyr-D-Ala-Phe-Phe-NH2] (H-Y[dA]FF-NH2) ; system μ receptors (Cavia porcellus)
3
